assay_target: Cdk2/cyclin A (Homo sapiens, UniProt P24941)
measurement_notes: In vitro kinase activity assay, histone H1 phosphorylation by Cdk2/cyclin A
setup_conditions: histone H1 phosphorylation
quantity_kind: IC50 (nM)
Give your result in nM as a bare value.

[Q] Please indicate IC50 recorded for "CC(C)C(=O)OC[C@@H]1O[C@H](n2cnc(N)c3c(C(N)=O)c(Br)nc2-3)[C@H](O)[C@H]1O"
[A] 50

====

Tested on: SNU-354 cells
measurement_notes: 3H-thymidine incorporation assay
Format: cell-based, human
setup_conditions: 50.0 μM, 18˜24 hours
Would you mind telling me the reported ^3H-thymidine incorporation (%) of each entry?
Give your result in % as a bare value.

[Q] Please indicate ^3H-thymidine incorporation (%) recorded for NC(=O)c1c(Br)nc2n([C@H]3O[C@@H](CO)[C@H](O)[C@H]3O)cnc(N)c1-2 [Example 1]
[A] 15.8

[Q] Please indicate ^3H-thymidine incorporation (%) recorded for Cn1cnc2c(NCc3ccccc3)nc(NCCO)nc21 [Olomoucine, olomoucine, reference compound]
[A] 77.2

[Q] Please indicate ^3H-thymidine incorporation (%) recorded for CC(C)C(=O)OC[C@@H]1O[C@H](n2cnc(N)c3c(C(N)=O)c(Br)nc2-3)[C@H](O)[C@H]1O [Example 2]
[A] 8

[Q] Please indicate ^3H-thymidine incorporation (%) recorded for CC[C@H](CO)Nc1nc(NCc2ccccc2)c2ncn(C(C)C)c2n1 [Roscosvitine, roscosvitine, reference compound]
[A] 47.2

====

System: SNU-354 cells
measurement_notes: 3H-thymidine incorporation assay
Format: cell-based, human
setup_conditions: 5.0 μM, 18˜24 hours
quantity_kind: ^3H-thymidine incorporation (%)
Give your result in % as a bare value.

[Q] Please indicate ^3H-thymidine incorporation (%) recorded for Cn1cnc2c(NCc3ccccc3)nc(NCCO)nc21 [Olomoucine, olomoucine, reference compound]
[A] 99.7

[Q] Please indicate ^3H-thymidine incorporation (%) recorded for "NC(=O)c1c(Br)nc2n([C@H]3O[C@@H](CO)[C@H](O)[C@H]3O)cnc(N)c1-2"
[A] 84.0

[Q] Please indicate ^3H-thymidine incorporation (%) recorded for CC[C@H](CO)Nc1nc(NCc2ccccc2)c2ncn(C(C)C)c2n1 [Roscosvitine, roscosvitine, reference compound]
[A] 98.2

[Q] Please indicate ^3H-thymidine incorporation (%) recorded for "CC(C)C(=O)OC[C@@H]1O[C@H](n2cnc(N)c3c(C(N)=O)c(Br)nc2-3)[C@H](O)[C@H]1O"
[A] 50.7

====

Tested on: caspase-3 activity in SNU-354 cells
measurement_notes: Measurement of caspase-3 activity (Experimental Example 4)
Format: cell-based, human
Set-up: unit not given here
setup_conditions: 5 μM
quantity_kind: Caspase-3 activity
# print the numeric value only

[Q] Please indicate Caspase-3 activity recorded for "CC(C)C(=O)OC[C@@H]1O[C@H](n2cnc(N)c3c(C(N)=O)c(Br)nc2-3)[C@H](O)[C@H]1O"
[A] 9.7

[Q] Please indicate Caspase-3 activity recorded for "NC(=O)c1c(Br)n([C@H]2O[C@@H](COC(=O)c3ccccc3)[C@@H](O)[C@@H]2O)c2ncnc(N)c12"
[A] 9.0

[Q] Please indicate Caspase-3 activity recorded for "CCC(=O)OC[C@@H]1O[C@H](n2c(Br)c(C(N)=O)c3c(N)ncnc32)[C@@H](O)[C@@H]1O"
[A] 10.7

[Q] Please indicate Caspase-3 activity recorded for "NC(=O)c1c(Br)nc2n([C@H]3O[C@@H](CO)[C@H](O)[C@H]3O)cnc(N)c1-2"
[A] 8.4

[Q] Please indicate Caspase-3 activity recorded for "CC(=O)O[C@H]1[C@H](OC(C)=O)[C@@H](n2cnc(N)c3c(C(N)=O)c(Br)nc2-3)O[C@H]1COC(=O)C(C)C"
[A] 5.1

[Q] Please indicate Caspase-3 activity recorded for "CC(C)(C)C(=O)OC[C@@H]1O[C@H](n2cnc(N)c3c(C(N)=O)c(Br)nc2-3)[C@H](O)[C@H]1O"
[A] 8.2

====

assay_target: Cdk1/cyclin B (Homo sapiens, UniProt P06493)
Sequence (P06493 whole entry): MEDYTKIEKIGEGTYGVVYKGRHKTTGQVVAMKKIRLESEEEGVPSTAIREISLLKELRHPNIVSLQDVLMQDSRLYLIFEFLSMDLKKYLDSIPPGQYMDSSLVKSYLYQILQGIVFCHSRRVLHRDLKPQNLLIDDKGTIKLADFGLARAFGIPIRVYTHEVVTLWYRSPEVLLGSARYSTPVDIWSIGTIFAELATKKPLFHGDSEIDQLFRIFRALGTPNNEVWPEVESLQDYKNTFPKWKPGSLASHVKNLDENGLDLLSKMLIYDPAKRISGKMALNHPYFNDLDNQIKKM
Sequence (P14635 whole entry partner): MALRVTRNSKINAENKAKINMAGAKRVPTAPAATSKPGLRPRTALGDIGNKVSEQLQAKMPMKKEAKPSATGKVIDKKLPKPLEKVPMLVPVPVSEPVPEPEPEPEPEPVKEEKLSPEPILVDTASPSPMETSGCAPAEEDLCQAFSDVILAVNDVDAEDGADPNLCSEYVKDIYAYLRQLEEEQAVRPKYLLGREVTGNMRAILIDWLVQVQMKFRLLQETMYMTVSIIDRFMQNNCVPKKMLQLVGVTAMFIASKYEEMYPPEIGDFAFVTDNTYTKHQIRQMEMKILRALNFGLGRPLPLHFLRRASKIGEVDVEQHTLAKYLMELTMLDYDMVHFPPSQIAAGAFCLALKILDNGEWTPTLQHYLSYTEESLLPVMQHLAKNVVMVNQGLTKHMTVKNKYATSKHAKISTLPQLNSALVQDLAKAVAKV
measurement_notes: In vitro kinase activity assay, histone H1 phosphorylation by Cdk1/cyclin B
setup_conditions: histone H1 phosphorylation
quantity_kind: IC50 (nM)
Give your result in nM as a bare value.

[Q] Please indicate IC50 recorded for "CC(C)C(=O)OC[C@@H]1O[C@H](n2cnc(N)c3c(C(N)=O)c(Br)nc2-3)[C@H](O)[C@H]1O"
[A] 50
